- assay-system: human KDR enzyme (Homo sapiens, UniProt P35968)
- Construct: The cytoplasmic domain of the human KDR enzyme was cloned in the form of a GST fusion; GST
- Sequence (P35968 786-1356 limits assumed): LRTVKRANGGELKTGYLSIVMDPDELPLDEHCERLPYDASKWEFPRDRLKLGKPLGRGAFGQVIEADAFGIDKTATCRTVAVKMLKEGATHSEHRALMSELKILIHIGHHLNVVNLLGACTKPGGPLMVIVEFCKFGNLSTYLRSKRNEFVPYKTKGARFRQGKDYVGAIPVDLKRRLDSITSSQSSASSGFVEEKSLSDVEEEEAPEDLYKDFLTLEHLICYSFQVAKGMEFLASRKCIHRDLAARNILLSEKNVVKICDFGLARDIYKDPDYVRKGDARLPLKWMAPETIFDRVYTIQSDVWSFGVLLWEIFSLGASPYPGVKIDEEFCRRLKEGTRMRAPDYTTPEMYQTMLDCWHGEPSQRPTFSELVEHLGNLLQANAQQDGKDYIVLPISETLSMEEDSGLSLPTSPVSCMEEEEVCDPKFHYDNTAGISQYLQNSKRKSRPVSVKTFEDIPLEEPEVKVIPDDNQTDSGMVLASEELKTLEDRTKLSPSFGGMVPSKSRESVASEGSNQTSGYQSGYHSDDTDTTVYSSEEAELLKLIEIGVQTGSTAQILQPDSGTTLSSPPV
- assay-overview: KDR substrate phosphorylation assay (scintillation, 96-well plate)
- assay-setup: cytoplasmic domain of human KDR as GST fusion, 2 μM cold ATP, 1 hour at 37° C.
Rule for this label: rule met means IC50 is less than 600 nM; rule not met means IC50 is at least 600 nM.

molecule	assay-system	group-label
CN(C)CC(C)(C)CNC(=O)c1cc(-c2cnc(NC(=O)Nc3cc(C(F)(F)F)ccc3F)s2)nc2[nH]ncc12 [Example 13]	human KDR enzyme (Homo sapiens, UniProt P35968)	rule met
CNC(=O)c1cc(-c2cnc(NC(=O)Nc3cc(C(F)(F)F)ccc3F)s2)nc2[nH]ncc12 [Example 11]	human KDR enzyme (Homo sapiens, UniProt P35968)	rule met
O=C(Nc1ncc(-c2cc(C(=O)NCCCN3CCCC3CO)c3cn[nH]c3n2)s1)Nc1cc(C(F)(F)F)ccc1F (stereo not shown) [Example 31]	human KDR enzyme (Homo sapiens, UniProt P35968)	rule not met
O=C(Nc1ccc(C(F)(F)F)cc1)Nc1ncc(-c2cc(C(=O)NCCN3CCOCC3)c3cn[nH]c3n2)s1 [Example 55]	human KDR enzyme (Homo sapiens, UniProt P35968)	rule not met
CN(C)CCNC(=O)c1cc(-c2cnc(NC(=O)Nc3cc(C(F)(F)F)ccc3F)s2)nc2[nH]ncc12 [Example 12]	human KDR enzyme (Homo sapiens, UniProt P35968)	rule not met
O=C(Nc1ncc(-c2cc(C(=O)N3CCNCC3)c3cn[nH]c3n2)s1)Nc1cc(C(F)(F)F)ccc1F [Example 16]	human KDR enzyme (Homo sapiens, UniProt P35968)	rule met
O=C(Nc1ncc(-c2cc(C(=O)NCc3ccncc3)c3cn[nH]c3n2)s1)Nc1cc(C(F)(F)F)ccc1F [Example 28]	human KDR enzyme (Homo sapiens, UniProt P35968)	rule not met
